Observed IC50 for Glycogen synthase kinase-3 beta (Homo sapiens, UniProt P49841), reported per entry below.
Quick note: give the figure in µM, leave out the unit.

- [Zn]: 15

Next, consider the following molecule.
Hi! What's the reported IC50 for N=C1N[C@H]2c3c([nH]c(Br)c3Br)C(=O)C3CCC[C@@]32N1 (some centres not stated) on Glycogen synthase kinase-3 beta (Homo sapiens, UniProt P49841)?
3

====

target.system: Glycogen synthase kinase-3 beta (Homo sapiens, UniProt P49841)
Sequence (P49841 whole entry): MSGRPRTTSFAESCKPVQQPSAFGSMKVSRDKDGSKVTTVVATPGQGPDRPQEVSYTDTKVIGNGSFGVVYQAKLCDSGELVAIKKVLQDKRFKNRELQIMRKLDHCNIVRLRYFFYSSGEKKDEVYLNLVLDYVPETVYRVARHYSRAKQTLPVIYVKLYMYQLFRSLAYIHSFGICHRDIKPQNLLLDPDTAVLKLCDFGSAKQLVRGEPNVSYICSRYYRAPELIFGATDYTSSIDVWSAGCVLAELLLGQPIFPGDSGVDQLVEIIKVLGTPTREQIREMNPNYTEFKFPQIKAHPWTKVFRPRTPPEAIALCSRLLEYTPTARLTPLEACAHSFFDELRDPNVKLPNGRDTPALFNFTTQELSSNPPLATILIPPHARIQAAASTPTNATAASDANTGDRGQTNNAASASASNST
readout.type: IC50
Just the number plus its unit, please.

Hi! What's the reported IC50 for O=C1NC(=O)C(c2cn(CCC3N=CC=N3)c3ccccc23)=C1c1noc2ccccc12 on Glycogen synthase kinase-3 beta (Homo sapiens, UniProt P49841)?
0.73 nM
